system: Streptococcus pneumoniae; test: Antimicrobial activity against erythromycin-resistant Streptococcus pneumoniae A22072 expressing the mef gene by broth microdilution method; type: functional
MIC values by entry
Report only the number, with the unit µg/mL understood.

**Q:** Tell me MIC reported for CC[C@H]1OC(=O)[C@H](C)[C@@H](O[C@H]2C[C@@](C)(OC)[C@@H](OC(=O)NCCCCCC(=O)NCCc3ccc(O)cc3)[C@H](C)O2)[C@H](C)[C@@H](O[C@@H]2O[C@H](C)C[C@H](N(C)C)[C@H]2O)[C@](C)(OC)C[C@@H](C)C(=O)[C@H](C)[C@@H](O)[C@]1(C)O
**A:** 8

**Q:** Tell me MIC reported for CC[C@H]1OC(=O)[C@H](C)[C@@H](O[C@H]2C[C@@](C)(OC)[C@@H](O)[C@H](C)O2)[C@H](C)[C@@H](O[C@@H]2O[C@H](C)C[C@H](N(C)C)[C@H]2O)[C@](C)(O)C[C@@H](C)CN(C)[C@H](C)[C@@H](O)[C@]1(C)O [AZITHROMYCIN]
**A:** 4

**Q:** Tell me MIC reported for CC[C@H]1OC(=O)[C@H](C)[C@@H](O[C@H]2C[C@@](C)(OC)[C@@H](OC(=O)NCCCCCC(=O)NCc3ccc(OC)cc3)[C@H](C)O2)[C@H](C)[C@@H](O[C@@H]2O[C@H](C)C[C@H](N(C)C)[C@H]2O)[C@](C)(OC)C[C@@H](C)C(=O)[C@H](C)[C@@H](O)[C@]1(C)O
**A:** 0.5

**Q:** Tell me MIC reported for CC[C@H]1OC(=O)[C@H](C)[C@@H](O[C@H]2C[C@@](C)(OC)[C@@H](OC(=O)NCCCC(=O)NC3CCCCC3)[C@H](C)O2)[C@H](C)[C@@H](O[C@@H]2O[C@H](C)C[C@H](N(C)C)[C@H]2O)[C@](C)(OC)C[C@@H](C)C(=O)[C@H](C)[C@@H](O)[C@]1(C)O
**A:** 2

**Q:** Tell me MIC reported for CCCCCNC(=O)CCCNC(=O)O[C@H]1[C@H](C)O[C@@H](O[C@H]2[C@H](C)[C@@H](O[C@@H]3O[C@H](C)C[C@H](N(C)C)[C@H]3O)[C@](C)(OC)C[C@@H](C)C(=O)[C@H](C)[C@@H](O)[C@](C)(O)[C@@H](CC)OC(=O)[C@@H]2C)C[C@@]1(C)OC
**A:** 2

**Q:** Tell me MIC reported for CC[C@H]1OC(=O)[C@H](C)[C@@H](O[C@H]2C[C@@](C)(OC)[C@@H](OC(=O)NCCCCCC(=O)NCCc3ccccc3Cl)[C@H](C)O2)[C@H](C)[C@@H](O[C@@H]2O[C@H](C)C[C@H](N(C)C)[C@H]2O)[C@](C)(OC)C[C@@H](C)C(=O)[C@H](C)[C@@H](O)[C@]1(C)O
**A:** 1

Switching to the query record.
**Q:** Tell me MIC reported for CC[C@H]1OC(=O)[C@H](C)[C@@H](O[C@H]2C[C@@](C)(OC)[C@@H](OC(=O)NCCCC(=O)NC(C)C)[C@H](C)O2)[C@H](C)[C@@H](O[C@@H]2O[C@H](C)C[C@H](N(C)C)[C@H]2O)[C@](C)(OC)C[C@@H](C)C(=O)[C@H](C)[C@@H](O)[C@]1(C)O
**A:** 8
